Every entry's value here was drawn from ChEMBL document CHEMBL1133611.

Kindly state Heart weight absolute for each of the entries shown.
tested on: Rattus norvegicus; experiment: Heart wt absolute in two week oral toxicity test in male F344/DuCrj rats after 50 mg/kg dose; format: functional
Answers are plain numbers, in g.

Example entries begin here.
INSERT INTO results (molecule, unit_annotation, observed_result) VALUES
  ('Cn1c(COc2ccc(CC3SC(=O)NC3=O)cc2)nc2cccnc21 (centres undefined)', 'g', 0.78),
  ('CN(CCOc1ccc(CC2SC(=O)NC2=O)cc1)c1ccccn1 (centres undefined)', 'g', 0.76),
  ('COc1ccc2nc(COc3ccc(CC4SC(=O)NC4=O)cc3)n(C)c2n1.Cl (centres undefined)', 'g', 0.68);

### Prompt Requested read-out: Heart weight absolute. Entry: Cn1c(COc2ccc(CC3SC(=O)NC3=O)cc2)nc2ccc(Cl)nc21 (centres undefined)
### Response 0.74

* * *

Kindly state Relative for each of the entries shown.
system: Rattus norvegicus; assay: Relative wt in two week oral toxicity test in male F344/DuCrj rats after 50 mg/kg dose; format: functional
One number for each entry, in g %.

INSERT INTO results (compound, tgt, unit_annotation, observed_result) VALUES
  ('Cn1c(COc2ccc(CC3SC(=O)NC3=O)cc2)nc2cccnc21 (centres undefined)', 'Rattus norvegicus', 'g %', 0.36),
  ('COc1ccc2nc(COc3ccc(CC4SC(=O)NC4=O)cc3)n(C)c2n1.Cl (centres undefined)', 'Rattus norvegicus', 'g %', 0.33),
  ('CN(CCOc1ccc(CC2SC(=O)NC2=O)cc1)c1ccccn1 (centres undefined)', 'Rattus norvegicus', 'g %', 0.36);

### Prompt Requested read-out: Relative. Entry: Cn1c(COc2ccc(CC3SC(=O)NC3=O)cc2)nc2ccc(Cl)nc21 (centres undefined)
### Response 0.37
